# procedure.summary: Mouse brain/plasma distribution assay for tissue levels of test compounds
# Format: in vivo, C57b1/6 black mice
# conditions: C57Bl/6, mouse, brain, sc; mice, subcutaneous single injection of 1 mg (10 mM DMSO solution); four hours post-administration; measured minus 2% of plasma
measured.attribute: concentration at 4 h

**Q:** concentration at 4 h for Cc1ccc(NC(=O)c2ccc(CN3CCN(C)CC3)cc2)cc1Nc1nccc(-c2cccnc2)n1 [imatinib] ?
**A:** < 100 nM

Where do the numbers come from? From patent US9056837B2.
